All values here come from patent US20220340682A1.

tgt: T1, hCEACAM5 NA1B1, human CEACAM5 N-A1-B1 domain (35-320) (human, UniProt P06731 35-320)
T1 construct: Followed by 6 amino acid His-Tag; also called hCEACAM5 N-ter-A1-B1
T1 sequence: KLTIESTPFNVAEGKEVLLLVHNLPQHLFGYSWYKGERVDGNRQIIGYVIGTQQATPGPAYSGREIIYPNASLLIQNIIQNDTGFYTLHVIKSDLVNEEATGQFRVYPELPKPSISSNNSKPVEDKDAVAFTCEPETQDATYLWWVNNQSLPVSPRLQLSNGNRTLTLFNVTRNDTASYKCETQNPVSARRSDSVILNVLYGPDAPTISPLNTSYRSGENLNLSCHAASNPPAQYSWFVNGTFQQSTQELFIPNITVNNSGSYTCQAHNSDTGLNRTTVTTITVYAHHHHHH
assayExplanation: ELISA on CEACAM5 domains
readoutLabel: percentage of binding compared to full binding with human CEACAM5 (%)
Please respond with the number in % and leave the unit unwritten.

Take a look at these entries with their results.
>  <binder>
huMAb2-4 (antibody, human IgG1, kappa, V domains shown, Humanized MAb2, human IgG1 / Ckappa; also called MAb2_VL1d VH1-IgG1; MAb2_VL1dVH1-IgG1) VH: EVQLQESGPGLVKPGGSLSLSCAASGFVFSSYDMSWVRQTPERRLEWVAYISSGGGITYFPSTVKGRFTVSRDNAKNTLYLQMNSLTSEDTAIYYCAAHYFGSSGPFAYWGQGTLVTVSA VL: DIQMTQSPASLSASVGDTVTITCRASENIFSYLAWYQQKPGKSPKLLVYNTRTLAEGVPSRFSGSGSGTQFSLTISSLQPEDFGSYYCQHHYGTPFTFGSGTKLEIKR

>  <experimentalResult>
0.3

$$$$
>  <binder>
huMAb2-2 (antibody, V domains shown, Humanized MAb2 (VL1a + VH1a) fused to human IgG1 and human Ckappa constant domains; also called MAb2_VL1aVH1a-IgG1; MA2_VL1aVH1a-IgG1) VH: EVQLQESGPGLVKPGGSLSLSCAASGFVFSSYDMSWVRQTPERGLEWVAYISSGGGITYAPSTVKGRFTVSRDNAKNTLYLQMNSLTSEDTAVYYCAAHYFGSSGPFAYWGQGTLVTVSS VL: DIQMTQSPASLSASVGDRVTITCRASENIFSYLAWYQQKPGKSPKLLVYNTKTLAEGVPSRFSGSGSGTDFSLTISSLQPEDFATYYCQHHYGTPFTFGSGTKLEIK

>  <experimentalResult>
0.4

$$$$
>  <binder>
huMAb2-1 (antibody, V domains shown, Humanized MAb2 (VL1 + VH1) fused to human IgG1 and human Ckappa constant domains; also called MAb2_VL1VH1-IgG1; MAb2VL1VH1-IgG1) VH: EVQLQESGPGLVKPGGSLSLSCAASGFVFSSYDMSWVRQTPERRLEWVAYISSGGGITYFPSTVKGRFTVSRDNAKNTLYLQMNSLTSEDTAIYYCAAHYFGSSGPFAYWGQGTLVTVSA VL: DIQMTQSPASLSASVGDTVTITCRASENIFSYLAWYQQKPGKSPKLLVYNTKTLAEGVPSRFSGSGSGTQFSLTISSLQPEDFGSYYCQHHYGTPFTFGSGTKLEIK

>  <experimentalResult>
0.4

$$$$

Look up percentage of binding compared to full binding with human CEACAM5 for this binder: huMAb2-3 (antibody, human IgG1, kappa, V domains shown, Humanized MAb2, human IgG1 / Ckappa; also called MAb2_VL1cVH1a-IgG1) VH: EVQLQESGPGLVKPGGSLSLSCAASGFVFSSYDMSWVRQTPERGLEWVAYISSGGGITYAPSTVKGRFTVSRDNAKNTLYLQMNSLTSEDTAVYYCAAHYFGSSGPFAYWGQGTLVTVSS VL: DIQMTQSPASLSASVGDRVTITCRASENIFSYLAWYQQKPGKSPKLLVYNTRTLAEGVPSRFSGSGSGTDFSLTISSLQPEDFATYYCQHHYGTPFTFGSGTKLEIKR 0.4

Look up percentage of binding compared to full binding with human CEACAM5 for this binder: chMAb2 (antibody, human IgG1, kappa, V domains shown, Chimeric, human IgG1, Ck isotype; also called MAb2-IgG1; chimeric MAb2) VH: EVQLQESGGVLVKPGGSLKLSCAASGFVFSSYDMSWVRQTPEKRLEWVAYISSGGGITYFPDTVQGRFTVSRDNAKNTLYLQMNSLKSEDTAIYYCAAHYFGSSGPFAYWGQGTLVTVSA VL: DIQMTQSPASLSASVGETVTITCRASENIFSYLAWYQQKQGKSPQLLVYNTKTLAEGVPSRFSGSGSGTQFSLKINSLQPEDFGSYYCQHHYGTPFTFGSGTKLEIKR 0.5
